Where do these numbers come from? They come from patent US4229443A.

Let's look at some compounds and their measured log10 IC50.
# Test system: Salmonella typhimurium NCTC 5710
# ASSAY COMMENT: Antibacterial activity, 50% inhibition of growth, Salmonella typhimurium NCTC 5710
# Format: cell-based
# ASSAY CONTEXT: Salmonella enterica, read-out: IC50 (concentration required for a 50% inhibition of growth)
Structures can show the parent of a compound that is named as a salt.
TEST READOUT: log10 IC50 (log10 of the value in µg/mL)

- COMPOUND: "CC1(C)S[C@@H]2[C@H](/N=C/N3CCCCCC3)C(=O)N2[C@H]1C(=O)O [Mecillinam]"
  log10 IC50: -1.30
- COMPOUND: "CC(C)(C)C(=O)OCOC(=O)[C@@H]1N2C(=O)[C@@H](N=CN3CCCC(C(CN)CN)CC3)[C@H]2SC1(C)C (stereo partly drawn) [Example 28F, trihydrochloride]"
  log10 IC50: -1.30
- COMPOUND: "CC1(C)S[C@@H]2[C@H](NC(=O)[C@H](N)c3ccccc3)C(=O)N2[C@H]1C(=O)O [Ampicillin]"
  log10 IC50: -0.40
- COMPOUND: "CC1(C)S[C@@H]2[C@H](N=CN3CCC(CCCN)CC3)C(=O)N2[C@H]1C(=O)O [EB 686, monohydrochloride]"
  log10 IC50: -1.80
- COMPOUND: "CC1(C)S[C@@H]2[C@H](N=CN3CCC(CN=[N+]=[N-])CC3)C(=O)N2[C@H]1C(=O)O [Example 2D]"
  log10 IC50: -0.70
- COMPOUND: "CC1(C)S[C@@H]2[C@H](N=CN3CCC(CCCN=[N+]=[N-])CC3)C(=O)N2[C@H]1C(=O)O [Example 1D]"
  log10 IC50: -0.30
